Listed here: items and their measured NanoBRET Fold Response.
- studySystem: HCRTR2 (Homo sapiens)
- Construct: purchased Promega (in-house HiBiT-GPCR construct library, NanoBRET)
- Sequence (O43614 whole entry): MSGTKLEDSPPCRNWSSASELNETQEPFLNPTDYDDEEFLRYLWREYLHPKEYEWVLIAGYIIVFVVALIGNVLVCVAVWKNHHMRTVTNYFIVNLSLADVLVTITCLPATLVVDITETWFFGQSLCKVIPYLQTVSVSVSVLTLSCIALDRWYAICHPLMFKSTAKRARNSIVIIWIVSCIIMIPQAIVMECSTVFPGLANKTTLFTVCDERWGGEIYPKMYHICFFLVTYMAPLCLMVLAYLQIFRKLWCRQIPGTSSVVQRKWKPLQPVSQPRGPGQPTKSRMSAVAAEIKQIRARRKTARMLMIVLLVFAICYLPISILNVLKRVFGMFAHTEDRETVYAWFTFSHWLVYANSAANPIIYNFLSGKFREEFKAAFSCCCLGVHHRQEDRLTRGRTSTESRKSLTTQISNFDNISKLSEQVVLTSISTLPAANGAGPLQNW
- procedureDetails: NanoBRET screen HiBiT-HCRTR2 in HEK293
- Assay type: binding
- testSettings: HCRTR2; tracer 0.1μM
experimentalEndpoint: NanoBRET Fold Response

compound | studySystem | recordedNumber
Cc1cc2c(s1)Nc1ccccc1N=C2N1CCN(CCCNC(=O)CCOCCOCCOCCOCCNC(=O)CCc2ccc3n2[B-](F)(F)[N+]2=C(c4ccc[nH]4)C=CC2=C3)CC1 [Olanzapine-a-2-NB590] | HCRTR2 (Homo sapiens) | 0.95
COc1ccccc1N1CCN(CCCCN2C(=O)c3ccc(CNC(=O)CCOCCNC(=O)c4ccc(CNC(=O)CCc5ccc6n5[B-](F)(F)[N+]5=C(c7ccc[nH]7)C=CC5=C6)cc4)cc3C2=O)CC1 [NAN-190-3-NB590] | HCRTR2 (Homo sapiens) | 0.98
CC(C)N(CC[C@H](c1ccccc1)c1cc(CCNC(=O)CCOCCOCCOCCOCCNC(=O)CCc2ccc3n2[B-](F)(F)[N+]2=C(c4ccc[nH]4)C=CC2=C3)ccc1O)C(C)C [Tolterodine-2-NB590] | HCRTR2 (Homo sapiens) | 1.04
O=C(CCOCCOCCOCCOCCNC(=O)CCc1ccc2n1[B-](F)(F)[N+]1=C(c3ccc[nH]3)C=CC1=C2)NCCCN1CCN(C2=Nc3ccccc3Oc3ccc(Cl)cc32)CC1 [Loxapine-a-2-NB590] | HCRTR2 (Homo sapiens) | 1.13
CCCn1c(=O)c2[nH]c(-c3ccc(OCC(=O)NCCNC(=O)CCOCCNC(=O)c4ccc(CNC(=O)CCc5ccc6n5[B-](F)(F)[N+]5=C(c7ccc[nH]7)C=CC5=C6)cc4)cc3)nc2n(CCC)c1=O [XAC-3-NB590] | HCRTR2 (Homo sapiens) | 1.06
Cc1nc2n(c(=O)c1CCN1CCC(c3noc4cc(F)ccc34)CC1)CCCC2OC(=O)NCCOCCOCCOCCOCCNC(=O)CCc1ccc2n1[B-](F)(F)[N+]1=C(c3ccc[nH]3)C=CC1=C2 (stereo not drawn) [Risperidone-2-NB590] | HCRTR2 (Homo sapiens) | 0.98

Entry source: paper PMC8151276
